Test: small molecules captured by biotinylated probe aFST – biochemical, small-molecule microarray, fluorescence 635/667, stem cell growth factor project, primary screen (AID 1086);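 further: score merges 667 nm fluorescence with signal-to-noise of each printed compound spot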
Conditions: higher = more signal
// label = rule met if composite z-score is not less than -0.1, otherwise rule not met

[[record]]
compound = "CCCCCCc1nc(-c2ccc(-c3ccc(Cl)c(Cl)c3)o2)cc2c1[Si](C(C)C)(C(C)C)OC2"
answerlabel = "rule not met"

[[record]]
compound = "C=CCC(OC(C)=O)[C@@H]1[C@@H](N(Cc2ccc(-c3cccc(C(F)(F)F)c3)o2)C(=O)Cc2ccc(F)cc2)c2cc(OCCCO)ccc2N1C(=O)Cc1ccc2ccccc2c1 (stereo not given in full)"
answerlabel = "rule not met"

[[record]]
compound = "C=CCC(OC(C)=O)[C@@H]1[C@@H](N(Cc2cc3ccccc3o2)C(=O)c2cccc3ccccc23)c2cc(OCCCO)ccc2N1C(=O)c1ccc2ccccc2n1 (stereo not given in full)"
answerlabel = "rule met"


Req: Is reported composite z-score greater than or equal to -0.1 here: "COCC(=C=CC[C@H](O)c1ccccc1OCCO)C[C@H](O)COCc1ccccc1"
Resp: rule met

Req: Is reported composite z-score greater than or equal to -0.1 here: NC(=O)N1C(=O)C2C(C1=O)C1C=C(CCCO)C2C(c2ccc(CN3CCCC3)cc2)N1Cc1sc2ccccc2c1Cl (stereo not given)
Resp: rule not met

---

Test: plasmodial surface anion channel blockers, osmotic lysis – cell-based, P. falciparum Indochina, OD700, 1 h, primary screen (AID 1154)
Conditions: P. falciparum Indochina infected RBC osmotic lysis, higher = more signal, called active from +8 up or from −8 down
experimentalReadout: z-score
I only need the number, thanks.

Req: Entry "CCCNC(=O)[C@@]1(c2ccc([N+](=O)[O-])cc2)CC(=O)N(C(C)C)[C@@H]1c1ccc(CO)cc1" has what z-score?
Resp: 1.4

Req: Entry "C[N+](C)(C)CCCCNC(=O)[C@H]1C[C@H]2C(=O)N[C@@H](Cc3ccccc3)C(=O)N2[C@H]1c1cccc(OCCO)c1" has what z-score?
Resp: 5.34

Req: Entry "COC(=O)[C@@]1(Cc2ccc(F)cc2)[C@H]2c3cc(C(=O)N(C)C)n(CCc4ccc(O)c(O)c4)c3C[C@H]2CN1C(=O)c1ccccc1" has what z-score?
Resp: 0.183

Req: Entry "CC1=C([C@H](O)CCc2ccccc2)[C@H](CO)n2c(=O)n(-c3ccccc3)c(=O)n2C1" has what z-score?
Resp: 1.44

Req: Entry "CCOC(=O)C[C@H]1[C@H](OC(=O)c2ccccc2-c2ccccc2)[C@@H](NC(=O)c2ccc3ccccc3c2)c2cc(OCCCO)ccc2N1C(=O)Cc1ccc(OC)cc1" has what z-score?
Resp: 4.15

Req: Entry "COc1ccc(C(=O)Nc2ccc3c(c2)[C@@]2(O[C@H](CCO)[C@@H]([Si](C)(C)c4ccc(OC)cc4)[C@@H]2C)C(=O)N3Cc2ccccc2)cc1" has what z-score?
Resp: 3.2

Req: Entry COc1cc(OC)c(C(O)C2C=CC3C(=O)N(c4ccccc4)C(=O)C3N2Nc2ccc(C(C)C)cc2)cc1Br (configuration not stated) has what z-score?
Resp: 2.94

---

Let's look at some molecules and their measured z-score.
Experiment: compound effects on hepatocellular carcinoma cell viability – HepG2, calcein-AM fluorescence, 48 h, basal, profiling panel (AID 1164); further: test concentration not given here
Settings: higher = more signal
I only need the number, thanks.

[[record]]
molecule = "O=C1C2C=CC(C(O)c3c(F)cccc3Cl)N(Nc3ccc([N+](=O)[O-])cc3)C2C(=O)N1c1ccccc1 (stereo unspecified)"
experimentalreadout = "z-score"
result = -0.645

[[record]]
molecule = "COc1ccc([Si](C)(C)[C@H]2[C@H](CCO)O[C@@]3(C(=O)N(Cc4cccc(N5C(=O)c6ccccc6Oc6ccccc65)c4)c4ccccc43)[C@@H]2C)cc1"
experimentalreadout = "z-score"
result = -4.22

[[record]]
molecule = "COC(=O)C1(Cc2ccccc2)C=C2C(=C(C)C(=O)C2C)CN1 (stereo unspecified)"
experimentalreadout = "z-score"
result = 0.159

[[record]]
molecule = "CN(C)C(=O)[C@@]1(Cc2ccccc2CN=[N+]=[N-])COC(c2ccc(OCCCO)cc2)=N1"
experimentalreadout = "z-score"
result = 0.0407

[[record]]
molecule = "CC(C)c1nc2cc(Br)ccc2c(=O)o1"
experimentalreadout = "z-score"
result = -1.32


Req: Entry "CC(=O)NCCCC[C@@H]1NC(=O)[C@H]2C[C@@H](C(=O)NCCCCCCNC(=O)CS)[C@@H](c3cccc(OCCO)c3)N2C1=O" has what z-score?
Resp: -0.644

Req: Entry "CCOC(=O)C1=CC[C@@H](c2ccccc2)N(S(=O)(=O)c2ccc(C)cc2)[C@H]1c1ccccc1I" has what z-score?
Resp: -0.47

Req: Entry "CCOC(=O)C[C@H]1[C@H](OC(=O)c2ccccc2-c2ccccc2)[C@@H](NC(=O)C2CCCCC2)c2cc(OCCCO)ccc2N1C(=O)c1ccc2ccccc2n1" has what z-score?
Resp: 0.581

Req: Entry "NC(=O)NCC#Cc1ccc2c(c1)[C@]1(C(=O)N2)[C@H](c2ccc(OCCO)cc2)N2[C@H](c3ccccc3)[C@H](c3ccccc3)OC(=O)[C@H]2[C@@H]1C(=O)O" has what z-score?
Resp: -0.21

Req: Entry "CCCC[C@H]1C[C@@H]1[C@@H]1N(C(C)=O)[C@H](c2cccc(OC)c2)CC12CC2" has what z-score?
Resp: -0.793

Req: Entry "C=CCOC(=O)[C@H]1[C@@H]2C(=O)O[C@@H](c3ccccc3)[C@@H](c3ccccc3)N2[C@@H](c2ccc(OCCOC(=O)[C@H]3C[C@H]4C(=O)N[C@@H](CC(C)C)C(=O)N4[C@H]3c3ccc(O)cc3)cc2)[C@]12C(=O)Nc1ccccc12" has what z-score?
Resp: 0.414
